target: human His-PIM1 [2-313] (Homo sapiens, UniProt P11309); construct: purified human His-PIM1 [2-313] enzyme; His (N); purchased University of Dundee, Scotland; host or cells: baculovirus system; test: PIM1 in-vitro mobility shift assay (Caliper LC3000, FL-Ahx-Bad phosphorylation); format: biochemical; conditions: 1.5 h; percent inhibition at 0.3 uM compound; read-out: PIM1 % I at 0.3 uM
Sequence (P11309 2-313): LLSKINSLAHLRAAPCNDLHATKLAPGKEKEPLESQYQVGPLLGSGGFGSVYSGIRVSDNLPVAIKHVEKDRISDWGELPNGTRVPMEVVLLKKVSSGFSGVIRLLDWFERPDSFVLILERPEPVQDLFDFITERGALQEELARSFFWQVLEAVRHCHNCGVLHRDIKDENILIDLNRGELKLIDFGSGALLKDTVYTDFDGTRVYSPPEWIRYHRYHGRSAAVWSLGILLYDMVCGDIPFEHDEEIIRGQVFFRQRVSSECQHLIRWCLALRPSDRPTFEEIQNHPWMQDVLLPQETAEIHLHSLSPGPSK
parameter_measured: inhibition at 0.3 µM (%)
Respond numerically; units are % and should not be typed.

The cases that follow already have their inhibition at 0.3 µM on record.
O=C1NC(=O)/C(=C/c2cc(C(F)(F)F)cc(Cl)c2N2CCN(c3ccc(F)cc3)CC2)S1 [Example 7] | 5.4
N#CCC(=O)N[C@H]1CCN(c2c(Cl)cccc2/C=C2\SC(=O)NC2=O)C1 [Example 146] | 88.9
O=C1NC(=O)/C(=C/c2cc(C(F)(F)F)cc(Cl)c2N2CCN(c3ccc(Cl)cc3F)CC2)S1 [Example 15] | 12.9
Cc1noc(C2CCCN(c3c(Cl)cc(C(F)(F)F)cc3/C=C3\SC(=O)NC3=O)C2)n1 (stereo not shown) [Example 16] | 13.9
COc1ccc(OCCN2CCCCC2)c(/C=C2\SC(=O)NC2=O)c1 [Example 61] | 81.8
CN1CCN(c2c(Cl)cc(C(F)(F)F)cc2/C=C2\SC(=O)NC2=O)CC1 [Example 32] | 94
O=C1NC(=O)/C(=C/c2cc(C(F)(F)F)cc(Cl)c2N2CCN(CCN3CCOCC3)CC2)S1 [Example 20] | 86.5
COc1cc(/C=C2\SC(=O)NC2=O)c(N2CCCC2)cc1OC [Example 46] | 13.4

GET inhibition at 0.3 µM where system = human His-PIM1 [2-313] (Homo sapiens, UniProt P11309) and item = CN(C)[C@H]1CCN(c2c(F)cccc2C=C2SC(=O)NC2=O)C1 [Example 84N]
92.8

GET inhibition at 0.3 µM where system = human His-PIM1 [2-313] (Homo sapiens, UniProt P11309) and item = O=C1NC(=O)/C(=C/c2cc(C(F)(F)F)cc(Cl)c2N2CCC(N3CCCCC3)CC2)S1 [Example 31]
92.8

GET inhibition at 0.3 µM where system = human His-PIM1 [2-313] (Homo sapiens, UniProt P11309) and item = O=C1NC(=O)/C(=C/c2cc(C(F)(F)F)cc(Cl)c2N2CCN(Cc3ccc4c(c3)OCO4)CC2)S1 [Example 8]
16.3

* * *

inhibition at 0.3 µM values for the molecules below.
molecular target: human His-PIM1 [2-313] (Homo sapiens); construct: purified human His-PIM1 [2-313] enzyme; His (N); purchased University of Dundee, Scotland; host or cells: baculovirus system; assay: PIM1 in-vitro mobility shift assay (Caliper LC3000, FL-Ahx-Bad phosphorylation); type: biochemical; conditions: 1.5 h; percent inhibition at 0.3 uM compound; read-out: PIM1 % I at 0.3 uM
Structures can show the parent of a compound that is named as a salt.

GET inhibition at 0.3 µM where system = human His-PIM1 [2-313] (Homo sapiens) and item = N[C@H]1CCCN(c2c(Cl)cc(C(F)(F)F)cc2/C=C2\SC(=O)NC2=O)C1 [Example 1, trifluoroacetate]
> 95%

GET inhibition at 0.3 µM where system = human His-PIM1 [2-313] (Homo sapiens) and item = CN(C)CC(=O)N[C@H]1CCN(c2c(Cl)cccc2/C=C2\SC(=O)NC2=O)C1 [Example 145]
> 95%

GET inhibition at 0.3 µM where system = human His-PIM1 [2-313] (Homo sapiens) and item = O=C1NC(=O)/C(=C/c2cn[nH]c2)S1 [Example 71]
< 5%

* * *

target: human His-PIM2 [23-299] (Homo sapiens, UniProt Q9P1W9); construct: purified human His-PIM2 [23-299] enzyme; His (N); host or cells: E. coli; test: PIM2 in-vitro mobility shift assay (Caliper LC3000, FL-Ahx-Bad phosphorylation); assay type: biochemical; conditions: 1.5 h; percent inhibition at 0.3 uM compound; read-out: PIM2 % I at 0.3 uM
Sequence (Q9P1W9 23-299): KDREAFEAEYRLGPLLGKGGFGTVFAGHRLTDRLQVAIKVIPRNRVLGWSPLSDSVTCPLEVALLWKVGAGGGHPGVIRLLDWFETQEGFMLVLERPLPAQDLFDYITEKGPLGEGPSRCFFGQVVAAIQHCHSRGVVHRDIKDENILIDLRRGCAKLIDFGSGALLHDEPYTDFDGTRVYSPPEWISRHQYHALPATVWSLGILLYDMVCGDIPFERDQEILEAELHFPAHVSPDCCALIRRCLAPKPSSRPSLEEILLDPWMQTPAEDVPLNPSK
Structures can show the parent of a compound that is named as a salt.
parameter_measured: inhibition at 0.3 µM

The cases that follow already have their inhibition at 0.3 µM on record.
CNCCN1CCN(c2ccccc2/C=C2\SC(=O)NC2=O)CC1 [Example 114, hydrochloride] | > 95%
O=C1NC(=O)/C(=C/c2cc(C(F)(F)F)cc(Cl)c2N2CCN(Cc3ccccc3Cl)CC2)S1 [Example 18] | < 5%
O=C1NC(=O)/C(=C/c2ccccc2N2CCN(C(=O)C3CCCNC3)CC2)S1 (centres unmarked) [Example 116, hydrochloride] | > 95%
N[C@@H]1CCCN(c2c(/C=C3\SC(=O)NC3=O)cccc2OCC(F)(F)F)C1 [Example 122Y, hydrochloride] | > 95%
O=C1NC(=O)/C(=C/c2cn[nH]c2)S1 [Example 71] | < 5%

Recall and state the measured inhibition at 0.3 µM for COc1cccc(/C=C2\SC(=O)NC2=O)c1N1CCC[C@@H](N)C1 [Example 122E, hydrochloride] .
> 95%

Recall and state the measured inhibition at 0.3 µM for O=C1NC(=O)/C(=C/c2cc(C(F)(F)F)cc(Cl)c2N2CCN(c3ccc(Cl)cc3F)CC2)S1 [Example 15] .
< 5%

Recall and state the measured inhibition at 0.3 µM for CNC1CN(c2c(Cl)cccc2/C=C2\SC(=O)NC2=O)CCC1C (centres unmarked) [Example 122U, hydrochloride] .
> 95%

* * *

target: human His-PIM2 [23-299] (Homo sapiens); construct: purified human His-PIM2 [23-299] enzyme; His (N); host or cells: E. coli; experiment: PIM2 in-vitro mobility shift assay (Caliper LC3000, FL-Ahx-Bad phosphorylation); assay type: biochemical; details: 1.5 h; percent inhibition at 0.3 uM compound; read-out: PIM2 % I at 0.3 uM
Structures can show the parent of a compound that is named as a salt.
parameter_measured: inhibition at 0.3 µM

N[C@@H]1CCCN(c2c(/C=C3\SC(=O)NC3=O)cccc2OCC2CCCCC2)C1 [Example 122K, hydrochloride] | > 95%
CN(C)[C@H]1CCN(c2c(Br)cccc2/C=C2\SC(=O)NC2=O)C1 [Example 33, hydrochloride] | > 95%

// moving on: another record for inhibition at 0.3 µM
Recall and state the measured inhibition at 0.3 µM for COc1cc(/C=C2\SC(=O)NC2=O)c(N2CC[C@H](N)C2)cc1OC [Example 101, hydrochloride] .
> 95%

* * *

target: human His-PIM2 [23-299] (Homo sapiens); construct: purified human His-PIM2 [23-299] enzyme; His (N); host or cells: E. coli; assay: PIM2 in-vitro mobility shift assay (Caliper LC3000, FL-Ahx-Bad phosphorylation); type: biochemical; conditions: 1.5 h; percent inhibition at 0.3 uM compound; read-out: PIM2 % I at 0.3 uM
Structures can show the parent of a compound that is named as a salt.
parameter_measured: inhibition at 0.3 µM

The cases that follow already have their inhibition at 0.3 µM on record.
CC(C)Oc1cccc(/C=C2\SC(=O)NC2=O)c1N1CCC[C@@H](N)C1 [Example 122O, hydrochloride] | > 95%
COc1cccc(/C=C2\SC(=O)NC2=O)c1N1CC[C@H](N)C1 [Example 96, hydrochloride] | > 95%
O=C1NC(=O)C(=Cc2c[nH]c3ccccc23)S1 (stereo in doubt) | < 5%
N[C@@H]1CCCN(c2c(Br)cccc2/C=C2\SC(=O)NC2=O)C1 [Example 122F, hydrochloride] | > 95%

// moving on: another record for inhibition at 0.3 µM
Recall and state the measured inhibition at 0.3 µM for COc1cc(/C=C2\SC(=O)NC2=O)c(N2CCC(N)C2)cc1OC (centres unmarked) [Example 118, hydrochloride] .
> 95%

* * *

biological target: human His-PIM1 [2-313] (Homo sapiens); construct: purified human His-PIM1 [2-313] enzyme; His (N); purchased University of Dundee, Scotland; host or cells: baculovirus system; test: PIM1 in-vitro mobility shift assay (Caliper LC3000, FL-Ahx-Bad phosphorylation); type: biochemical; conditions: 1.5 h; percent inhibition at 0.3 uM compound; read-out: PIM1 % I at 0.3 uM
Counter-ions that a name gives are not always drawn.
parameter_measured: inhibition at 0.3 µM

CNCCN1CCN(c2ccccc2/C=C2\SC(=O)NC2=O)CC1 [Example 114, hydrochloride] | > 95%
N[C@H]1CN(c2c(Cl)cccc2/C=C2\SC(=O)NC2=O)CC[C@@H]1O (racemic) [Example 122M, hydrochloride] | > 95%

Recall and state the measured inhibition at 0.3 µM for NCCCN1CCN(c2ccccc2/C=C2\SC(=O)NC2=O)CC1 .
> 95%

* * *

target: human His-PIM1 [2-313] (Homo sapiens); construct: purified human His-PIM1 [2-313] enzyme; His (N); purchased University of Dundee, Scotland; host or cells: baculovirus system; assay: PIM1 in-vitro mobility shift assay (Caliper LC3000, FL-Ahx-Bad phosphorylation); format: biochemical; conditions: 1.5 h; percent inhibition at 0.3 uM compound; read-out: PIM1 % I at 0.3 uM
Counter-ions that a name gives are not always drawn.
parameter_measured: inhibition at 0.3 µM

Recall and state the measured inhibition at 0.3 µM for COc1cccc(/C=C2\SC(=O)NC2=O)c1N1C[C@@H](C)N[C@@H](C)C1 .
< 5%

Recall and state the measured inhibition at 0.3 µM for CN(C)[C@H]1CCN(c2c(Cl)cc(C(F)(F)F)cc2/C=C2\SC(=O)NC2=O)C1 .
> 95%

Recall and state the measured inhibition at 0.3 µM for NCCN1CCN(c2ccccc2/C=C2\SC(=O)NC2=O)CC1 [Example 112, hydrochloride] .
> 95%

Recall and state the measured inhibition at 0.3 µM for O=C1NC(=O)/C(=C/c2cccc(Cl)c2N2CCNCC2)S1 [Example 98, hydrochloride] .
> 95%
